Answer each item with its documented median fluorescence, fold over isotype.
Biological target: SARS-CoV Spike protein (full length Spike, coupled to optically encoded beads) (SARS-CoV, UniProt P59594 14-1190)
Express your answer as a number followed by its unit.

Solved cases (3 shown):
| binder | value measured |
| --- | --- |
| anti-SARS-CoV-2 antibody 431 (antibody, V domains shown) VH: QVQLVESGGGVVQPGRSLRLSCAASGFTFSSYAMHWVRQAPGKGLEWLAVISYDGSNKYYADSVKGRFTISRDNSKNTLYLQMNSLRAEDTAVYYCARSFRGGYYYGMDVWGQGTTVTVSS VL: DIQLTQSPSFLSASVGDRVTITCRASQGISSYLAWYQQKPGKAPKLLIYAASTLQSGVPSRFSGSGSGTEFTLTISSLQPEDFATYYCQQLNSYPLFTFGPGTKVDIK | 49.9 fold over isotype |
| anti-SARS-CoV-2 antibody 396 (antibody, V domains shown) VH: QVQLQQWGAGLLKPSETLSLTCAVYGGSFSGYYWSWIRQPPGKGLEWIGEIIHSGSTNYNPSLKSRVTISVDTSKNQFSLKLSSVTAADTAVYYSARRTGLLWFREGSYYFDYWGQGTLVTVSS VL: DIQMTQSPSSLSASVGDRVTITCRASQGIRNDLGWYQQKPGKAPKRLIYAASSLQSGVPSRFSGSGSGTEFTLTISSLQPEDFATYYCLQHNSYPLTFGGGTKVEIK | 1.36 fold over isotype |
| anti-SARS-CoV-2 antibody 385 (antibody, V domains shown) VH: QVQLVESGGGVVQPGRSLRLSCAASGFTFSSYAIHWVRQAPGKGLEWVAVISYDGSNKYYADSVKGRFTISRDNSKNTLYLQMNSLRAEDTAVYYCARPRSGSYWGAFDIWGQGTMVTVSS VL: QSVLTQPPSVSGAPGQRVTISCTGSSSNIGARYDVHWYQQLPGTAPKLLIYGNSNRPSGVPDRFSGSKSGTSASLAITGLQAEDEADYYCQSYDSSLRGVFGGGTKLTVL | 59.6 fold over isotype |

Read the next record carefully.
Request: Fill in the blank: the reported median fluorescence, fold over isotype of anti-SARS-CoV-2 antibody 392 (antibody, V domains shown) VH: QVQLQESGPGLVKPSGTLSLTCAVSGGSISSSNWWSWVRQPPGKGLEWIGEIYHSGSTNYNPSLKSRVTISVDKSKNQFSLKLSSVTAADTAVYYCARGWRATLYGMDVWGQGTTVTVSS VL: QSALTQPASVSGSPGQSITISCTGTSSDVGSYNLVSWYQQHPGKAPKLMIYEVSKRPSGVSNRFSGSKSGNTASLTISGLQAEDEADYYCCSYAGSSTWVFGGGTKLTVL is ____.
Response: 1.08 fold over isotype

Values compiled from patent US20220356229A1.
